- ASSAY: Half life of compound in aqueous phosphate buffer at pH 7.4 and at 37 degree C in presence of 5 mM GSH
- Type: physicochemical
- CONDITION_INFO: aqueous phosphate buffer with 5 mM GSH
OBSERVED_PROPERTY: half-life (h)
Field: numeric (h). Do not append units.

Suppose we examine the molecule C=CC(=O)N1CCN(c2nc(=O)n(-c3c(C)ccnc3C(C)C)c3nc(-c4c(O)cccc4F)c(F)cc23)[C@@H](C)C1 [SOTORASIB] ; what half-life value has been reported?
3.33

###

- ASSAY: Permeability of compound across apical to basolateral membrane in MDCK2 cells at 10 to 50 uM incubated for 2 hrs under shaking condition by LC-MS/MS analysis
- Type: ADME, cell-based, Canis lupus familiaris, MDCK-II
- CONDITION_INFO: dog, MDCK; read-out: permeability
OBSERVED_PROPERTY: Papp A→B at 2 h, up to 50 µM

Suppose we examine the compound C=CC(=O)N1CCN(c2nc(=O)n(-c3c(C)ccnc3C(C)C)c3nc(-c4c(O)cccc4F)c(F)cc23)[C@@H](C)C1 [SOTORASIB] ; what Papp A→B at 2 h, up to 50 µM value has been reported?
6 ×10⁻⁶ cm/s

Also, C=CC(=O)N1CCN(c2nc(=O)n(-c3ccccc3C(C)C)c3nc(-c4ccccc4O)c(Cl)cc23)[C@@H](C)C1 please.
18 ×10⁻⁶ cm/s

Also, C=CC(=O)N1CCN(c2nc(=O)n(-c3c(C)ncnc3C(C)C)c3nc(-c4c(O)cccc4F)c(F)cc23)[C@@H](C)C1 please.
< 1 ×10⁻⁶ cm/s

Also, C=CC(=O)N1CCN(c2nc(=O)n(-c3c(C(C)C)ccnc3C)c3nc(-c4c(O)cccc4F)c(Cl)cc23)[C@@H](C)C1 please.
2 ×10⁻⁶ cm/s

Also, C=CC(=O)N1CCN(c2nc(=O)n(-c3c(C(C)C)ccnc3C)c3nc(-c4c(O)cccc4F)c(F)cc23)[C@@H](C)C1 please.
1 ×10⁻⁶ cm/s

Also, C=CC(=O)N1CCN(c2nc(=O)n(-c3ccccc3C(C)C)c3cc(-c4c(O)cccc4F)c(Cl)cc23)[C@@H](C)C1 please.
1 ×10⁻⁶ cm/s

Also, C=CC(=O)N1CCN(c2nc(=O)n(-c3ccccc3C(C)C)c3nc(-c4ccccc4F)c(Cl)cc23)[C@@H](C)C1 please.
20 ×10⁻⁶ cm/s

Also, C=CC(=O)N1CCN(c2nc(=O)n(-c3ccccc3C(C)C)c3cc(-c4c(O)cccc4F)c(Cl)cc23)CC1 please.
2 ×10⁻⁶ cm/s

Also, C=CC(=O)N1CCN(c2nc(=O)n(-c3ccccc3C(C)C)c3cc(-c4c(C)ccc5[nH]ncc45)c(Cl)cc23)CC1 please.
4 ×10⁻⁶ cm/s

Also, C=CC(=O)N1CCN(c2nc(=O)n(-c3ccccc3C(C)C)c3cc(-c4ccccc4F)c(Cl)cc23)[C@@H](C)C1 please.
10 ×10⁻⁶ cm/s

Also, C=CC(=O)N1CCN(c2nc(=O)n(-c3ccccc3C(C)C)c3nc(-c4c(O)cccc4F)c(Cl)cc23)[C@@H](C)C1 (stereo in doubt; (R)-18) please.
9 ×10⁻⁶ cm/s

Also, C=CC(=O)N1CCN(c2nc(=O)n(-c3c(C)cccc3C(C)C)c3nc(-c4c(O)cccc4F)c(F)cc23)[C@@H](C)C1 please.
22 ×10⁻⁶ cm/s

Also, C=CC(=O)N1CCN(c2nc(=O)n(-c3ccccc3C(C)C)c3nc(-c4c(O)cccc4F)c(Cl)cc23)CC1 please.
6 ×10⁻⁶ cm/s

Also, C=CC(=O)N1CCN(c2nc(=O)n(-c3c(C)ncnc3C(C)C)c3nc(-c4c(O)cccc4F)c(Cl)cc23)[C@@H](C)C1 please.
1 ×10⁻⁶ cm/s

Also, C=CC(=O)N1CCN(c2nc(=O)n(-c3ccccc3C(C)C)c3nc(-c4ccccc4Cl)c(Cl)cc23)[C@@H](C)C1 please.
12 ×10⁻⁶ cm/s

###

- ASSAY: Clearance in Beagle dog at 1 mg/kg, iv or 10 mg/kg, po
- Format: ADME, organism-based, Canis lupus familiaris
- CONDITION_INFO: in vivo
OBSERVED_PROPERTY: clearance (mL/min/kg)
Field: numeric (mL/min/kg). Do not append units.

Suppose we examine the compound C=CC(=O)N1CCN(c2nc(=O)n(-c3c(C)ccnc3C(C)C)c3nc(-c4c(O)cccc4F)c(F)cc23)[C@@H](C)C1 ; what clearance value has been reported?
36.7

###

- ASSAY: Half life in Sprague-Dawley rat at 1 mg/kg, iv or 10 mg/kg, po
- Type: ADME, organism-based
- CONDITION_INFO: in vivo
OBSERVED_PROPERTY: half-life

Suppose we examine the molecule C=CC(=O)N1CCN(c2nc(=O)n(-c3c(C)ccnc3C(C)C)c3nc(-c4c(O)cccc4F)c(F)cc23)[C@@H](C)C1 [SOTORASIB] ; what half-life value has been reported?
30 min

###

- TESTED_ON: GTPase KRas (Homo sapiens, UniProt P01116, C118A/G12C)
- ASSAY: Inhibition of GDP bound recombinant human His-tagged KRAS G12C/C118A mutant (1 to 169 residues) assessed as reduction in SOS1-mediated GDP/GTP nucleotide exchange by measuring the disruption between GDP-bound recombinant His-tagged KRAS G12C/C118A (1 to 169 residues) and Ras binding domain of GST-tagged c-RAF (1 to 149 residues) preincubated for 5 mins followed by SOS1 and GTP addition and further incubated for 30 mins by AlphaLISA assay
Provide the recorded pIC50 for the entries that follow.
In simple prose, pIC50 is minus the logarithm base ten of a concentration in moles per litre.

Suppose we examine the molecule C=CC(=O)N1CCN(c2ncnc3c(F)c(-c4c(O)cccc4F)c(Cl)cc23)CC1 ; what pIC50 value has been reported?
6.03

Also, C=CC(=O)N1CCN(c2nnc(-c3ccccc3CC)c3cc(-c4c(O)cccc4F)c(Cl)cc23)CC1 please.
6.04

Also, C=CC(=O)N1CCN(c2nc(=O)n(-c3c(C(C)C)ncnc3C(C)C)c3nc(-c4c(O)cccc4F)c(Cl)cc23)[C@@H](C)C1 please.
7.68

Also, C=CC(=O)N1CCN(c2nc(=O)n(-c3ccccc3C3CC3)c3nc(-c4c(O)cccc4F)c(Cl)cc23)[C@@H](C)C1 please.
6.65

Also, C=CC(=O)N1CCN(c2nnc(-c3ccccc3)c3cc(-c4c(O)cccc4F)c(Cl)cc23)CC1 please.
4.70

Also, C=CC(=O)N1CCN(c2nc(=O)n(-c3c(CC)cccc3CC)c3nc(-c4c(O)cccc4F)c(Cl)cc23)[C@@H](C)C1 please.
7.17

Also, C=CC(=O)N1CCN(c2nnc(-c3ccccc3C3CC3)c3cc(-c4c(O)cccc4F)c(Cl)cc23)CC1 please.
5.81

Also, C=CC(=O)N1CCN(c2nnc(-c3ccccc3OC)c3cc(-c4c(O)cccc4F)c(Cl)cc23)CC1 please.
5.04

Also, C=CC(=O)N1CCN(c2nnc(-c3ccccc3C)c3cc(-c4c(O)cccc4F)c(Cl)cc23)CC1 please.
5.24

Also, C=CC(=O)N1CCN(c2nnc(-c3ccccc3Cl)c3cc(-c4c(O)cccc4F)c(Cl)cc23)CC1 please.
5.45

Also, C=CC(=O)N1CCN(c2nc(=O)n(-c3ccccc3C(C)C)c3nc(-c4c(O)cccc4F)c(Cl)cc23)[C@@H](C)C1 (stereo in doubt; (R)-18) please.
7.29

Also, C=CC(=O)N1CCN(c2nnc(-c3ccccc3C(C)C)c3cc(-c4c(O)cccc4F)c(Cl)cc23)CC1 please.
6.17

Also, C=CC(=O)N1CCN(c2nc(=O)n(-c3ccccc3C(C)C)c3cc(-c4c(O)cccc4F)c(Cl)cc23)CC1 please.
7.00

###

- ASSAY: Permeability of compound across apical to basolateral membrane in MDCK2 cells at 10 to 50 uM incubated for 2 hrs under shaking condition by LC-MS/MS analysis
- Assay type: ADME, cell-based, Canis lupus familiaris, MDCK-II
- CONDITION_INFO: dog, MDCK; read-out: permeability
OBSERVED_PROPERTY: Papp A→B at 2 h, up to 50 µM (×10⁻⁶ cm/s)
Field: numeric (×10⁻⁶ cm/s). Do not append units.

Suppose we examine the molecule C=CC(=O)N1CCN(c2nc(=O)n(-c3c(C)ccnc3C(C)C)c3nc(-c4c(O)cccc4F)c(Cl)cc23)[C@@H](C)C1 ; what Papp A→B at 2 h, up to 50 µM value has been reported?
1

Also, C=CC(=O)N1CCN(c2nc(=O)n(-c3c(C)cccc3C(C)C)c3nc(-c4c(O)cccc4F)c(Cl)cc23)[C@@H](C)C1 please.
15

Also, C=CC(=O)N1CCN(c2nc(=O)n(-c3ccccc3C(C)C)c3cc(-c4ccccc4Cl)c(Cl)cc23)[C@@H](C)C1 please.
6

Also, C=CC(=O)N1CCN(c2nc(=O)n(-c3ccccc3C(C)C)c3cc(-c4ccccc4F)c(Cl)cc23)CC1 please.
7

Also, C=CC(=O)N1CCN(c2nc(=O)n(-c3ccccc3C(C)C)c3cc(-c4ccccc4C(F)(F)F)c(Cl)cc23)[C@@H](C)C1 please.
3
